Target: von Willebrand factor (VWF) (Homo sapiens, UniProt P04275 P04275:764-2813)
Test: filter; Bmax 90%; 2 mM CaCl2, 37 C
Conditions: tags: factor VIII free human purified VWF, Haematologic Technologies Inc; label: 5'-32P
METRIC: Kd (nM)

BINDER	METRIC	OBS VALUE
ACGAACUGCCCUCUUUUUUUUGACGCACAGACGU (ssRNA, 2'-F C2,U7,C9,C10,C11,U12,C24,C26,C32,U34; ribo A1,G3,G8,A23,G25,A27,G33; rest 2'-OMe; 3' idT) [T95 vrt1]	Kd	0.9
ACGAACUGCCCUCUUUUUUGACGCACAGACGU (ssRNA, 2'-F C2,U7,C9,C10,C11,U12,C22,C24,C30,U32; ribo A1,G3,G8,A21,G23,A25,G31; rest 2'-OMe; 3' idT) [T94 vrt1]	Kd	0.9
